- Tested on: TK-10 renal
- Assay text: NCI-60 one-dose screen, 48 h
- Experimental parameters: 10 µM unless noted
The panel holds about 83,000 compounds, 20% with a hit somewhere; the sample as a whole holds those more often. Calls of active or inactive are those of the source. How the source made its calls: active means growth percent below 10; inactive means the rest.
Choose the fitting class; nothing outside true = active, false = inactive is accepted.

- Compound: "CCNc1nc(Cl)nc(NCC)n1"
  Category: "false"
- Compound: "COc1ccc(C2=CC(c3ccc(OC)c(OC)c3)c3c(c4ccccc4oc3=O)O2)cc1OC (stereo not given)"
  Category: "false"
- Compound: "COc1ccc(C(O)(C(=O)O)c2ccc(OC)cc2)cc1"
  Category: "false"

Incoming: For this compound, state the assay outcome: CC[C@]12C=CCN3CC[C@@]4(c5ccc(OC)cc5N(C)[C@H]4[C@@](O)(C(=O)OC)[C@@H]1OC(=O)CCCC[P+](c1ccccc1)(c1ccccc1)c1ccccc1)[C@@H]32
Outgoing: false

Incoming: Fill in: this test's call for CCC(=O)Nc1ccc(Cl)c(Cl)c1 is ___
Outgoing: false

Incoming: What classification did CC(C)=CCC/C(C)=C/C=N\N=C(/N)N[N+](=O)[O-] end up with in this test?
Outgoing: false

Incoming: Dear all, I need the recorded test outcome for O=NNc1ccccn1 , thank you.
Outgoing: false

Incoming: Please let me know the test result on file for COc1cc2c(cc1OCCCCCn1c(-c3ccco3)nc3ccccc31)N=C[C@@H]1CCCN1C2=O .
Outgoing: true

Incoming: How was O=C(N/N=C\c1ccc(N(CCCl)CCCl)cc1)c1cccc([N+](=O)[O-])c1 classified in this test?
Outgoing: false

Incoming: Record request — test call for Cc1sc2c(c1C)C(c1ccc(Cl)cc1)=N[C@@H](CC(=O)OC(C)(C)C)c1nnc(C)n1-2
Outgoing: false

###

- Test system: MDA-MB-231 breast
- Assay text: NCI-60 one-dose screen, 48 h
- Experimental parameters: 10 µM unless noted
This is part of a sample that, as a whole, favours compounds with a hit. Of some 83,000 tested, about 20% had one in any assay. The source made the active and inactive calls. The calls were made as follows: active = growth percent below 10; inactive = the rest.
Write down one outcome, taken from 1 (yes) for active, 0 (no) for inactive

Incoming: I'd appreciate the recorded outcome for CC[C@H](C)[C@H](NC(=O)NC(C)(C)C)C(=O)N(C)[C@H](C[C@@H](OC(C)=O)c1nc(C(=O)N[C@@H](Cc2ccccc2)C[C@H](C)C(=O)OC)cs1)C(C)C from this test.
Outgoing: 0 (no)

Incoming: Please state the recorded outcome for this molecule: CC(=O)O[C@H](C[C@H](C(C)C)N(C)C(=O)[C@@H](NC(=O)[C@H]1CCCCN1C)C(C)C)c1nc(C(=O)N[C@@H](Cc2ccccc2)C[C@H](C)C(=O)O)c(C)s1
Outgoing: 0 (no)

Incoming: Dear colleague, could you share the recorded outcome for O=C(CN1CCN(C(=O)c2ccco2)CC1)Nc1ccc(Cl)cc1C(=O)c1ccccc1Cl when you have a moment?
Outgoing: 0 (no)

Incoming: Identify the outcome logged in this assay for the molecule shown: ClCCN(CCCl)c1ccc(OCc2ccccc2)cc1
Outgoing: 0 (no)

###

Kindly state growth for each of the entries shown.
- System: SNB-75 CNS
- Assay text: NCI-60 one-dose screen, 48 h (100 = growth as untreated, 0 = no growth, -100 = all killed)
- Experimental parameters: 10 µM unless noted
The panel holds about 83,000 compounds, 20% with a hit somewhere; the sample as a whole holds those more often.
Give bare numbers, in %.

- Compound: "CC[C@H](C)[C@H](NC(=O)[C@H]1CCCCN1C)C(=O)N(C)[C@H](CC(=O)c1nc(C(=O)N[C@@H](Cc2ccccc2)C[C@H](C)C(=O)O)cs1)C(C)C"
  Measure name: "growth"
  Reported measurement: 49.3
- Compound: "COC(=O)[C@@]1(C)CC[C@]2(C)CC[C@]3(C)C4=CC(=O)c5c(cc(O)c(O)c5C)[C@]4(C)CC[C@@]3(C)[C@@H]2C1"
  Measure name: "growth"
  Reported measurement: 112
- Compound: "C/C(=C\\c1cc(C(F)(F)F)nn1CCNC(=O)OC(C)(C)C)[C@@H]1C[C@@H]2O[C@]2(C)CCC[C@H](C)[C@H](O)[C@@H](C)C(=O)C(C)(C)[C@@H](O)CC(=O)O1"
  Measure name: "growth"
  Reported measurement: 37.2
- Compound: "CC[C@H](C)[C@@H]([C@@H](CC(=O)N1CCC[C@H]1[C@H](OC)[C@@H](C)C(=O)N[C@H](C)[C@@H](O)c1ccccc1)OC)N(C)C(=O)[C@@H](NC(=O)[C@@H](NC)C(C)C)C(C)C"
  Measure name: "growth"
  Reported measurement: 39
- Compound: "NC(=O)CNc1ccc([As]=[As]c2ccc(NCC(N)=O)cc2)cc1 (configuration not stated)"
  Measure name: "growth"
  Reported measurement: 24.5

// each compound listed below needs its growth
1. O=NNc1ccccn1
2. CC[C@H](C)[C@H](NC(=O)[C@H]1CCCCN1C)C(=O)N(C)[C@H](C[C@@H](OC(C)=O)c1nc(C(=O)N[C@@H](Cc2ccccc2)C[C@H](C)C(=O)OC)cs1)C(C)C

Outgoing:
1. 95.5
2. 31.8
